Data credit: the supplement of paper PMC6522484

- System: HCT116
- ASSAY: cell viability (CellTiter-Glo) relative to plate median (fraction of plate median); higher = more viable cells
- REPORTED CONDITIONS: 10 µM; treatment time 24 h; reporter: TCF4/Wnt
Param label: returns criterion met when cell viability < 1, returns criterion not met otherwise, including exact equality.

Sample answers from the record:
CC1(COc2ccc3c(c2)ncn3-c2ccc3cccc(N4CCC(N)CC4)c3n2)COC1 : criterion met
Cc1cc(C)c(/C=C2\C(=O)Nc3ccccc32)[nH]1 [Semaxanib (SU5416)] : criterion not met
COc1ccc2c(OCc3nnc4ccc(-c5ccccc5)nn34)ccnc2c1 : criterion not met
Cc1cc(C(=O)NOCCO)c(Nc2ccc(I)cc2F)n(C)c1=O : criterion met
COc1cc(Nc2ncc(F)c(Nc3ccc4c(n3)N(COP(=O)(O)O)C(=O)C(C)(C)O4)n2)cc(OC)c1OC [R788 (Fostamatinib)] : criterion met
CNC(=O)c1cc(Oc2ccc(NC(=O)Nc3ccc(Cl)c(C(F)(F)F)c3)cc2)ccn1 : criterion not met

Q: Does the reported cell viability of the following molecule sit strictly below 1? "CCS(=O)(=O)c1cccc(-c2cc(C(=O)NC3CCN(C)CC3)c(C)c3[nH]c4ncc(C)cc4c23)c1"
Ans: criterion met

###

- System: SW480
- ASSAY: cell viability (CellTiter-Glo) relative to plate median (fraction of plate median); higher = more viable cells
- REPORTED CONDITIONS: 5 µM; treatment time 24 h; reporter: 7TFP
Each record is given Y if its reported cell viability is strictly below 1. Records at or above 1 are given N.

Look over these answered cases.
CC(C)(Sc1cc(C(C)(C)C)c(O)c(C(C)(C)C)c1)Sc1cc(C(C)(C)C)c(O)c(C(C)(C)C)c1 : Y
CC(=O)NCCc1ccc(O)cc1 [N-(p-Hydroxyphenyl)ethylacetamide] : N
CC12CCC3C(CC3(C)C)C(C)(CCC1=O)O2 (stereo unspecified) : Y
Nc1ccc(C(=O)Oc2ccccc2)c(O)c1 : N

Q: State whether 1 exceeds cell viability recorded for CC(=O)O[C@@H]1C=C[C@]2(C)C(C[C@@H](OC(C)=O)[C@]3(C)C4=CC(=O)O[C@H](c5ccoc5)[C@@]4(C)CCC23)C1(C)C (stereo partly specified) .
Ans: N

Q: Lab note: cell viability threshold 1. Does this compound come in strictly under it? "NC(=O)c1ncn([C@@H]2O[C@H](CO)[C@@H](O)[C@H]2O)c1N"
Ans: Y

Q: Please state whether cell viability is below 1 for "C[C@H](CS)C(=O)N1CCC[C@H]1C(=O)O"
Ans: N

Q: Answer whether the compound CC12CCC(CC1=O)C2(C)C (stereo unspecified) has cell viability strictly less than 1
Ans: N

Q: Report whether reported cell viability is lower than 1 (strictly) for CC1CC2C3CCC4=CC(=O)C=CC4(C)C3(F)C(O)CC2(C)C1C(=O)CO (stereo unspecified)
Ans: Y

###

- System: SW480
- ASSAY: TCF/Wnt firefly luciferase reporter signal relative to plate median (fraction of plate median); higher = higher Wnt reporter signal
- REPORTED CONDITIONS: 5 µM; treatment time 24 h; reporter: 7TFP
Use y when the recorded TCF/Wnt firefly luciferase reporter signal is no lower than 1; use n when it is lower.

CCCN(CCC)S(=O)(=O)c1ccc(C(=O)O)cc1 : y
CC(=O)O[C@H]1C(=O)[C@@]2(C)[C@H]([C@H](OC(=O)c3ccccc3)[C@]3(O)C[C@H](OC(=O)[C@H](O)[C@@H](NC(=O)c4ccccc4)c4ccccc4)C(C)=C1C3(C)C)[C@]1(OC(C)=O)CO[C@@H]1C[C@@H]2O : n
CN[C@@H]1[C@H](O)[C@H](NC)[C@H]2O[C@@]3(O)C(=O)C[C@@H](C)O[C@H]3O[C@@H]2[C@H]1O : y
O=C(O)CCc1nc(-c2ccccc2)c(-c2ccccc2)o1 : n
O=C1OC(=O)[C@H]2[C@@H]1[C@@H]1CC[C@H]2O1 : n

Switching to the query record.
Q: Determine whether measured TCF/Wnt firefly luciferase reporter signal meets or exceeds 1 for CC(CN(C)C)CN1c2ccccc2CCc2ccccc21 (stereo not drawn)
Ans: y

###

Exercise: for every item that follows, state its recorded cell viability.
- System: DLD1
- ASSAY: cell viability (CellTiter-Glo) relative to plate median (fraction of plate median); higher = more viable cells
- REPORTED CONDITIONS: 5 µM; treatment time 24 h; reporter: 7TFP

Example cases with answers are listed next.
C/C1=C2/[N-][C@H]([C@H](CC(N)=O)[C@@]2(C)CCC(=O)NC[C@@H](C)OP(=O)([O-])O[C@H]2[C@@H](O)[C@@H](n3cnc4cc(C)c(C)cc43)O[C@@H]2CO)[C@]2(C)N=C(/C(C)=C3N=C(/C=C4N=C1[C@@H](CCC(N)=O)C\4(C)C)[C@@H](CCC(N)=O)[C@]\3(C)CC(N)=O)[C@@H](CCC(N)=O)[C@]2(C)CC(N)=O.[CH2-][C@H]1O[C@H](n2cnc3c(N)ncnc32)[C@@H](O)[C@H]1O.[Co+3] : 0.933
CC12CCC(CC1=O)C2(C)C (configuration not stated) : 0.974
COc1cc(O)cc(OC)c1OC : 1.01

Need cell viability for each of these compounds.
1. CC(=O)N[C@@H](C=O)[C@@H](O)[C@H](O)[C@H](O)CO
2. Cc1c(C)c2c(c(C)c1O)CCC(C)(COc1ccc(CC3SC(=O)NC3=O)cc1)O2 (configuration not stated)

Ans:
1.04
1.05

Batch of 2 compounds: report cell viability for each.
1. NC(=O)N/N=C/c1ccc([N+](=O)[O-])o1
2. NC(=O)N(CCc1ccccc1)CCc1ccccc1 [N, N-Bis(2-phenylethyl)urea]

Ans:
1: 0.894; 2: 1.08

###

- System: HCT116
- ASSAY: cell viability (CellTiter-Glo) relative to plate median (fraction of plate median); higher = more viable cells
- REPORTED CONDITIONS: 5 µM; treatment time 24 h; reporter: TCF4/Wnt
What cell viability was measured for each of the following?

Answered examples (2):
C=C(NC(=O)C(=C)NC(=O)c1csc(C2=N[C@@H]3c4csc(n4)[C@H]4NC(=O)c5csc(n5)[C@H]([C@](C)(O)[C@@H](C)O)NC(=O)[C@H]5CSC(=N5)/C(=C/C)NC(=O)[C@H]([C@@H](C)O)NC(=O)c5csc(n5)[C@]3(CC2)NC(=O)[C@H](C)NC(=O)C(=C)NC(=O)[C@H](C)NC(=O)[C@H]([C@@H](C)CC)N[C@@H]2C=Cc3c([C@H](C)O)cc(nc3[C@H]2O)C(=O)O[C@@H]4C)n1)C(N)=O : 1.05
C=C1C2CCC3(C)C(c4ccoc4)OC(=O)CC13OC1CC(OC(C)=O)C(C)(C)C(CC(=O)OC)C12C (stereo not drawn) : 0.946

Kindly review the next molecule as well.
Q: Fill in the blank: the reported cell viability of "O=C(O)c1cc(O)c(O)c(O)c1" is ____.
Ans: 0.955

###

- Tested on: HCT116
- ASSAY: cell viability (CellTiter-Glo) relative to plate median (fraction of plate median); higher = more viable cells
- REPORTED CONDITIONS: 5 µM; treatment time 24 h; reporter: TCF4/Wnt
Could you please mark label 1 for values of cell viability below 1 and label 0 for values at or above it?

The following compounds have reported results that may help.
N[C@@H](Cc1c[nH]c2ccccc12)C(=O)O : label 0
c1ccc2[nH]c(-c3cscn3)nc2c1 : label 0
CC(C)Oc1ccc2c(=O)c(-c3ccccc3)coc2c1 : label 0
C=CC(C)(O)CCC1C(=C)CC(OC(C)=O)C2C(C)(C)CCCC12C (stereo unspecified) : label 1
CO[C@@H]1[C@@H](OC(N)=O)[C@@H](O)[C@H](Oc2ccc3c(O)c(NC(=O)c4ccc(O)c(CC=C(C)C)c4)c(=O)oc3c2C)OC1(C)C : label 1

Q: Dear colleague, could you confirm whether cell viability of "O=c1ccc2cc(O)c(O)cc2o1" falls below 1? Thanks.
Ans: label 0

Q: Is cell viability of "CCOC(=O)c1ccc(O)cc1" strictly below 1?
Ans: label 1

Q: Does the reported cell viability of "O=C(N[C@H](CO)[C@H](O)c1ccc([N+](=O)[O-])cc1)C(Cl)Cl" stay below 1?
Ans: label 1

Q: Does the reported cell viability of O=C1NC(Cc2ccc(O)cc2)C(=O)N2CCCC12 (stereo unspecified) stay below 1?
Ans: label 1

Q: Please indicate whether the reported cell viability of "CC(C)Cn1c(=O)n(C)c(=O)c2nc[nH]c21" is strictly below 1.
Ans: label 0

###

- Tested on: SW480
- ASSAY: TCF/Wnt firefly luciferase reporter signal relative to plate median (fraction of plate median); higher = higher Wnt reporter signal
- REPORTED CONDITIONS: 5 µM; treatment time 24 h; reporter: 7TFP
Label fulfilled when TCF/Wnt firefly luciferase reporter signal is at or above 1; anything below gets not fulfilled.

CCC(C)C(=O)OC1[C@@H]2CC3=C4CC(=O)O[C@@H](c5ccoc5)[C@]4(C)CCC3[C@@](C)(C2=O)[C@@H](CC(=O)OC)C1(C)C (stereo partly drawn) : not fulfilled
CN1CC(=O)NC1=N : not fulfilled
c1ccc(CN(CC2=NCCN2)c2ccccc2)cc1 : fulfilled
COc1c(O)cc2c(c1O)[C@@H]1O[C@H](CO)[C@@H](O)[C@H](O)[C@H]1OC2=O : fulfilled
O=C1O[C@H](CO)[C@@H](O)[C@H](O)[C@H]1O : not fulfilled
CC(=O)[C@H]1CC[C@H]2[C@@H]3CCC4=CC(=O)CC[C@]4(C)[C@H]3CC[C@]12C : fulfilled
Cc1c(Nc2ncccc2C(=O)O)cccc1C(F)(F)F : not fulfilled
c1ccc2c(c1)CN1CCCC1=N2 : not fulfilled

Q: Decide: is the reported value of TCF/Wnt firefly luciferase reporter signal for CC(CCC(=O)O)C1CCC2C3CCC4CC(O)CCC4(C)C3C=CC12C (stereo not drawn) equal to or greater than 1?
Ans: not fulfilled

Q: Is TCF/Wnt firefly luciferase reporter signal for "O=C(O)/C=C/c1ccccc1" at or above 1?
Ans: fulfilled

Q: Hi team, for C[C@]12CC[C@@H](O)C[C@H]1CCc1ccccc12 [3alpha-HYDROXY-4,4-BISNOR-8,11,13-PODOCARPATRIENE] , is the recorded TCF/Wnt firefly luciferase reporter signal at or above 1?
Ans: fulfilled

Q: Answer whether TCF/Wnt firefly luciferase reporter signal of "NCCNCCNCCN" is greater than or equal to 1.
Ans: fulfilled

Q: Hello, I need to know if "O=C(Nc1ccc([N+](=O)[O-])cc1Cl)c1cc(Cl)ccc1O" has measured TCF/Wnt firefly luciferase reporter signal not below 1. Thanks!
Ans: not fulfilled

Q: Answer whether TCF/Wnt firefly luciferase reporter signal of "COc1ccc2c(c1OC)OC[C@@H](c1ccc(OC)c(OC)c1OC)C2" is greater than or equal to 1.
Ans: not fulfilled

Q: Record CC(C)Cc1ccc(C(C)C(=O)O)cc1 (stereo not drawn) ; criterion: TCF/Wnt firefly luciferase reporter signal no lower than 1. Met?
Ans: fulfilled

Q: Textbook exercise: given the entry "NC(=O)c1cccnc1" , state whether its TCF/Wnt firefly luciferase reporter signal is greater than or equal to 1.
Ans: fulfilled

Q: Kindly determine if TCF/Wnt firefly luciferase reporter signal recorded for CC(C)CCC[C@@H](C)C1CC[C@H]2[C@@H]3CCC4CC(=O)CC[C@]4(C)[C@H]3CC[C@]12C (stereo partly drawn) is above or exactly 1.
Ans: not fulfilled
